I'd appreciate it if you could supply Activity values for the items below.
Tested on: Mus musculus
experiment: Tested for mean survival time treated animal not surviving 50 days as a percentage at dose of 20 mg/kg
Format: functional
One number for each entry, in %.

// worked examples, Activity included
| molecule | measured.on | result |
| --- | --- | --- |
| O=Cc1c(C=O)c(O)c2ccccc2c1O | Mus musculus | 76 |
| CC(=O)Oc1c(C)c(C)c(OC(C)=O)c2c1C(OC(C)=O)OC2OC(C)=O (stereo unspecified) | Mus musculus | 109 |
| CCCc1c(O)c(C=O)c(C=O)c(O)c1CCC | Mus musculus | 150 |
| COc1c(C)c(C)c(OC)c(C=O)c1C=O | Mus musculus | 103 |

Dear colleague, could you please provide Activity for the molecules listed below?
1. Cc1c(C)c(O)c(C=O)c(C=O)c1O
2. Cc1c(C)c(O)c(C=O)c(C)c1O

Marked response:
[91, 84]
